Please go through the items and note down their pIC50.
# tested target: PI3K gamma (Homo sapiens, UniProt P48736)
# Sequence (P48736 144-1102 limits assumed): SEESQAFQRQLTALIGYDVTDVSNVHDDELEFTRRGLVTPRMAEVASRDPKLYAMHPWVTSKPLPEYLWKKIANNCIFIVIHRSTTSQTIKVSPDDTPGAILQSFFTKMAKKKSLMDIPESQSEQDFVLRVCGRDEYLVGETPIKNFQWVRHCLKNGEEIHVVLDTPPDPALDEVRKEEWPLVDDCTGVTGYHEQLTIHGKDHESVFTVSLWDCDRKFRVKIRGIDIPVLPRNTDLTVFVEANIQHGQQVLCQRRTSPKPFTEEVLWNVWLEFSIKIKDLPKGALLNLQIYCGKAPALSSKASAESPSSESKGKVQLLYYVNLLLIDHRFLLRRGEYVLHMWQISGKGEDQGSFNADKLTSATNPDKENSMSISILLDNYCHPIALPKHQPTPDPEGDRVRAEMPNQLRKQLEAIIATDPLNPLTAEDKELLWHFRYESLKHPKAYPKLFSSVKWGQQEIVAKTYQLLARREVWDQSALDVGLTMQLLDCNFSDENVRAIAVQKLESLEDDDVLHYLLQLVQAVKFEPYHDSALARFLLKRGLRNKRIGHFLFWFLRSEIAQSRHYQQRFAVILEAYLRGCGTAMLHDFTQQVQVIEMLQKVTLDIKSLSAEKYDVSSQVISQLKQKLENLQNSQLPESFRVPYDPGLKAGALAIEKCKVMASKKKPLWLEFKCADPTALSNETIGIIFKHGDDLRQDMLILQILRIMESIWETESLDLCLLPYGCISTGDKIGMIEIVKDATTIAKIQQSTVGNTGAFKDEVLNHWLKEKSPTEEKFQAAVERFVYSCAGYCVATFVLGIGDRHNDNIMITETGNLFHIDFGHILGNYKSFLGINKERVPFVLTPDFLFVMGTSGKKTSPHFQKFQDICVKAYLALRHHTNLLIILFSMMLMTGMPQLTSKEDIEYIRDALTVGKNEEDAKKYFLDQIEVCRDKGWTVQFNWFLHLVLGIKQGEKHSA
FYI, pIC50 means -log10 of a concentration in mol per litre.

Read off the recorded pIC50 for Cn1c(=O)n(-c2cccnc2)c2c3cc(-c4ccc(CO)nc4)ccc3ncc21
6.03

Determine its reported pIC50: Cc1ncccc1-n1c(=O)n(C)c2cnc3ccc(-c4ccc(N)nc4)cc3c21
6.41

Give the reported value of pIC50 for this record: COc1ccc(-c2ccc3ncc4c(c3c2)n(-c2ncccc2C)c(=O)n4C)cn1
6.29

Supply measured pIC50 of CNc1ncc(-c2ccc3ncc4c(c3c2)n(-c2ncccc2C)c(=O)n4C)cn1 in your reply.
6.41

Tell me measured pIC50 for COc1ncccc1-n1c(=O)n(C)c2cnc3ccc(-c4ccc(C(N)=O)cc4)cc3c21 please.
6.92

Give reported pIC50 value for CCOc1ccc(-c2ccc3ncc4c(c3c2)n(-c2ncccc2C)c(=O)n4C)cn1
6.28

State its pIC50 for this compound: COc1ccc(-c2ccc3ncc4c(c3c2)n(-c2ncccc2C)c(=O)n4C)cc1OC
6.51

Kindly indicate its recorded pIC50. Item: COc1ccc(-c2ccc3ncc4c(c3c2)n(-c2cccnc2C)c(=O)n4C)cc1OC
6.90

Identify measured pIC50 associated with Cc1cccnc1-n1c(=O)n(C)c2cnc3ccc(-c4cnc(N)c(C(F)(F)F)c4)cc3c21
6.69

Respond only with pIC50 recorded for Cc1ncccc1-n1c(=O)n(C)c2cnc3ccc(-c4cnc(N)c(C(F)(F)F)c4)cc3c21
6.91

Name the recorded pIC50 of the item CCOc1ccc(-c2ccc3ncc4c(c3c2)n(-c2cnccc2C)c(=O)n4C)cn1 in your answer.
6.26

Report pIC50 for Cn1c(=O)n(-c2cccnc2F)c2c3cc(-c4cnc5[nH]ccc5c4)ccc3ncc21
6.33

# return recorded pIC50 for entry Cc1cccnc1-n1c(=O)n(C)c2cnc3ccc(-c4cnc5ccccc5c4)cc3c21
6.39

Give pIC50 for the following compound: CNc1ccc(-c2ccc3ncc4c(c3c2)n(-c2cccnc2OC)c(=O)n4C)cn1
6.64

Could you please provide reported pIC50 for CCOc1ccc(-c2ccc3ncc4c(c3c2)n(-c2cccnc2C)c(=O)n4C)cn1 ? Thanks!
6.23

Give the measured pIC50 for COc1ccc(-c2ccc3ncc4c(c3c2)n(-c2cccnc2)c(=O)n4C)cc1OC
6.44

Please look at this compound and report its pIC50: CN(C)c1ccc(-c2ccc3ncc4c(c3c2)n(-c2cccnc2)c(=O)n4C)cn1
6.44

###

I'd appreciate it if you could supply pIC50 values for the items below.
# Tested on: PKB Ser473 phosphorylation in Rat1-myr-HA-p110 beta cells
# measurement notes: Reverse protein array, PKB Ser473 phosphorylation in Rat1-myr-HA-p110 beta cells
# Assay type: cell-based
# condition label: Rattus norvegicus, 0.5 h, 30 minutes compound incubation, read-out: p-PKB/IC50_beta
# pIC50 = -log10(concentration in molar units)

Look up and report measured pIC50 for this entry: COc1cc(-c2ccc3ncc4c(c3c2)n(-c2ccc(N3CCC(OC)C3)nc2C)c(=O)n4C)cnc1CO (stereo not shown) [Example 28.3]
7.35

Give a short answer stating reported pIC50 for CNc1ncc(-c2ccc3ncc4c(c3c2)n(-c2ccc(N3CC[C@H](O)C3)nc2C)c(=O)n4C)cc1C(F)(F)F [Example 32.5] .
7.96

Supply reported pIC50 belonging to this compound: COc1ccc(-n2c(=O)n(C)c3cnc4ccc(-c5cnc(N(C)C)nc5)cc4c32)c(C)n1 [Example 11.4]
6.90

Entry CNc1ncc(-c2ccc3ncc4c(c3c2)n(-c2ncccc2C)c(=O)n4C)cn1 [Example 3.4] needs its pIC50 filled in; supply it.
6.28

Identify the reported pIC50 for the following entry. COc1ccc(-c2ccc3ncc4c(c3c2)n(-c2cccnc2)c(=O)n4C)cn1 [Example 5.4]
6.82

Query pIC50 for COCc1ncc(-c2ccc3ncc4c(c3c2)n(-c2ccc(OC)nc2OC)c(=O)n4C)cc1OC [Example 8.12]
7.09

Provide only the value of recorded pIC50 for CCOc1ccc(-c2ccc3ncc4c(c3c2)n(-c2ccc(OC)nc2C)c(=O)n4C)cn1 [Example 11.1]
7.93

Write down pIC50 measured for item CCOc1cc(-c2ccc3ncc4c(c3c2)n(-c2ccc(F)nc2C)c(=O)n4C)cnc1COC [Example 7.5]
7.09

Please indicate pIC50 recorded for CNC(=O)c1ccc(-c2ccc3ncc4c(c3c2)n(-c2ncccc2C)c(=O)n4C)cc1 [Example 3.5]
6.88

Consider the compound CCOc1ccc(-c2ccc3ncc4c(c3c2)n(-c2ccc(N3CCC(O)C3)nc2C)c(=O)n4C)cn1 (stereo not shown) [Example 27.4] . State its measured pIC50.
7.69

For the compound COc1cc(-c2ccc3ncc4c(c3c2)n(-c2ccc(N3CC(O)C3)nc2C)c(=O)n4C)cnc1CO [Example 29.5] , give its measured pIC50 value.
6.43

Complete the entry with pIC50 for Cc1ncccc1-n1c(=O)n(C)c2cnc3ccc(-c4cnc5c(ccn5C)c4)cc3c21 [Example 2.14]
7.88

Output pIC50 of Cc1ncccc1-n1c(=O)n(C)c2cnc3ccc(-c4ccc(OCCCN(C)C)nc4)cc3c21 [Example 2.10]
7.07

Note pIC50 for the compound shown: CNc1ncc(-c2ccc3ncc4c(c3c2)n(-c2cccnc2C)c(=O)n4C)cn1 [Example 2.2]
7.83

###

Hi there, I'd appreciate the recorded IC50 for every entry that follows.
# tested target: PI3K delta (Homo sapiens)
# Construct: for the full-length p110-d subunit are generated and fused by overlapping PCR; His tag (C); made in house; host or cells: baculovirus BV1060; Tn5 (Trichoplusia ni) or TiniPro insect cells
# Sequence (O00329 with tags, fused parts or gaps limits assumed): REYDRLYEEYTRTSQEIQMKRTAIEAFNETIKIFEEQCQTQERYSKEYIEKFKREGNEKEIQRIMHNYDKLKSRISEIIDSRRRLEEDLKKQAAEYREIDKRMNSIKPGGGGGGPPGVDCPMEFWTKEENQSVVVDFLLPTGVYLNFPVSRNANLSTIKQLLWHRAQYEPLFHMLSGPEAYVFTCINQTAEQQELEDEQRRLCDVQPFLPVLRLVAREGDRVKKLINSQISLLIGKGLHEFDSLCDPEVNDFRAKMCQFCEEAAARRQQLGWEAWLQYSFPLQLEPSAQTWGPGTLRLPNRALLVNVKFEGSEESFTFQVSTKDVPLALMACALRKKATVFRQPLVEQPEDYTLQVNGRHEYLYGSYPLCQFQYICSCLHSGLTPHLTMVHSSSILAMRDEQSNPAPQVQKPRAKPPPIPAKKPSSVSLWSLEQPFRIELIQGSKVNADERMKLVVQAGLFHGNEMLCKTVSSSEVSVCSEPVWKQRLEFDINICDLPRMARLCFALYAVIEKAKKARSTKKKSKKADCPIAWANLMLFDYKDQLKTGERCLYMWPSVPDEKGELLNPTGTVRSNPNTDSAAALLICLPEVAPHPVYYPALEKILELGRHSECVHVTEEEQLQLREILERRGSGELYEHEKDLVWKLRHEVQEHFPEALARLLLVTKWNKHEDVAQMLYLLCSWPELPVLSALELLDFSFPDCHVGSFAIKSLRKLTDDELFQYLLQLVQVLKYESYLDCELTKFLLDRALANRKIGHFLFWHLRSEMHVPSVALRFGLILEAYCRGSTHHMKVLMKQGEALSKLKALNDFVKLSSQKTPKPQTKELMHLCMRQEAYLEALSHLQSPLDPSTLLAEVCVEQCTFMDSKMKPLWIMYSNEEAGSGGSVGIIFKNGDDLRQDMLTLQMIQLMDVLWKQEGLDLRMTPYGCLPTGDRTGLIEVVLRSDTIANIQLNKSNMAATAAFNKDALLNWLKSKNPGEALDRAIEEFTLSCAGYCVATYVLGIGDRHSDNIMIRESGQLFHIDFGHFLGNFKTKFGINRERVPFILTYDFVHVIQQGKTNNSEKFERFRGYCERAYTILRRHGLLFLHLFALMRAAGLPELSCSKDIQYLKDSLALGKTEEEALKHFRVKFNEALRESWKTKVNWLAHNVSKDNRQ
# measurement notes: PI3K delta kinase assay (Kinase-Glo luminescence)
# Format: biochemical
# condition label: read-out: EPK_PI3Kdelta/IC50
// units = nM; emit number, no label

Give a short answer stating reported IC50 for CCNc1cc(-c2ccc3ncc4c(c3c2)n(-c2ccc(N3CCCC3)nc2C)c(=O)n4C)cnc1CO .
33

Please indicate IC50 recorded for CCNc1ncc(-c2ccc3ncc4c(c3c2)n(-c2ccc(N3CC[C@H](O)C3)nc2C)c(=O)n4C)cn1
20

Supply reported IC50 belonging to this molecule: CNc1ncc(-c2ccc3ncc4c(c3c2)n(-c2ccc(N3CC(F)(F)C3)nc2C)c(=O)n4C)cn1
164

Answer with reported IC50 of COCCOc1cc(-c2ccc3ncc4c(c3c2)n(-c2ccc(OC)nc2OC)c(=O)n4C)cnc1C
14

###

# tested target: PI3K beta (Homo sapiens)
# Construct: for the full-length p110-b subunit are generated and fused by overlapping PCR; His tag (C); made in house; host or cells: baculovirus BV949; Tn5 (Trichoplusia ni) or TiniPro insect cells
# Sequence (P42338 with tags, fused parts or gaps limits assumed): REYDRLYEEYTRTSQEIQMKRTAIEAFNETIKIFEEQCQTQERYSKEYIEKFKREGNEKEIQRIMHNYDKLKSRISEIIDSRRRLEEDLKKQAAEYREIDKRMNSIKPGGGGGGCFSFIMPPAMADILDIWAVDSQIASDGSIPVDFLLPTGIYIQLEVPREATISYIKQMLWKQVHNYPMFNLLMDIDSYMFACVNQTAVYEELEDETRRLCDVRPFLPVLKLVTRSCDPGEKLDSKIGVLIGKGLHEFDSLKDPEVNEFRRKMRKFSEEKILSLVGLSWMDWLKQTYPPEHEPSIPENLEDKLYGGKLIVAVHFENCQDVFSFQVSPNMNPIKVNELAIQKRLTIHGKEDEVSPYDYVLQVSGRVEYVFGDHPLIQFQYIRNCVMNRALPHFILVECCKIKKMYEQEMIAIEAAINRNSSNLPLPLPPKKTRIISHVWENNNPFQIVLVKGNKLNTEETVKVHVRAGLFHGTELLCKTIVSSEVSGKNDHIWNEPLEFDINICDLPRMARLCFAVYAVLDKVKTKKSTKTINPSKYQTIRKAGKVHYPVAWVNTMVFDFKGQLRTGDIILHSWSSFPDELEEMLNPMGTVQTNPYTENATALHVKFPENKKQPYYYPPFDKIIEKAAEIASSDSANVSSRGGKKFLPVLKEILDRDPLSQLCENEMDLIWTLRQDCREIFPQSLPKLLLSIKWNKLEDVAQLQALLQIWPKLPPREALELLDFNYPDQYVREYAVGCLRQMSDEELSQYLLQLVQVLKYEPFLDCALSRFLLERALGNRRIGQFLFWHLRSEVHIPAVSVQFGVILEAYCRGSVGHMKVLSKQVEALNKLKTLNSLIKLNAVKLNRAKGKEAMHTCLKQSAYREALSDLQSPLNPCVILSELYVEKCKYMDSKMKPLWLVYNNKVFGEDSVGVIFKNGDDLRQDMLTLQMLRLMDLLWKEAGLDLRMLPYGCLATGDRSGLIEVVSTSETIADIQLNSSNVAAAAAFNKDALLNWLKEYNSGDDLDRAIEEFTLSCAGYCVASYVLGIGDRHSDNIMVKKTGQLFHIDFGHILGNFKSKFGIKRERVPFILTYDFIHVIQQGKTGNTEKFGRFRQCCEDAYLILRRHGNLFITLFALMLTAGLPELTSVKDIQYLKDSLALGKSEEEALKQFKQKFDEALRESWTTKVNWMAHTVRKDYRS
# measurement notes: PI3K beta kinase assay (Kinase-Glo luminescence)
# Format: biochemical
# condition label: read-out: EPK_PI3Kbeta/IC50
Would you kindly list log10 IC50 for each of these molecules?
Each number you see is log10 of IC50, and the unit inside the log is nM.

Give the measured log10 IC50 for CNc1ncc(-c2ccc3ncc4c(c3c2)n(-c2ccc(N(C)C)nc2C)c(=O)n4C)cn1 [Example 19.1]
2.00

State its log10 IC50: Cc1nc(N2CC(O)C2)ccc1-n1c(=O)n(C)c2cnc3ccc(-c4cncc(C(C)(C)O)c4)cc3c21 [Example 29.1]
1.78

// Input: CNc1ncc(-c2ccc3ncc4c(c3c2)n(-c2ccc(N3CCC(OC)C3)nc2C)c(=O)n4C)cn1 (stereo not drawn) [Example 28.2] . Output its log10 IC50 only.
2.48

State, in one line, measured log10 IC50 of CCOc1ccc(-c2ccc3ncc4c(c3c2)n(-c2ccc(C)nc2C)c(=O)n4C)cn1 [Example 14.2]
2.55

Determine from records and report log10 IC50 for CNc1ncc(-c2ccc3ncc4c(c3c2)n(-c2ccc(N3CC[C@H](O)C3)nc2C)c(=O)n4C)cc1F [Example 32.2]
3.03

Read the entry Cc1nc(C(F)(F)F)ccc1-n1c(=O)n(C)c2cnc3ccc(-c4cnc(N)c(CO)c4)cc3c21 [Example 33.5] and write its reported log10 IC50.
1.75

Retrieve log10 IC50 measured for Cc1nc(N2CCC2)ccc1-n1c(=O)n(C)c2cnc3ccc(-c4cncc(N5CCC5)c4)cc3c21 [Example 23.1] and print it.
3.06

// fetch log10 IC50 given entry COCCOc1ccc(-n2c(=O)n(C)c3cnc4ccc(-c5cnc(COC)c(OC)c5)cc4c32)c(C)n1 [Example 22.3]
2.09

Supply log10 IC50 value. Item: CNc1ncc(-c2ccc3ncc4c(c3c2)n(-c2ccc(N3CC[C@H](O)C3)nc2C)c(=O)n4C)cc1Cl [Example 32.4]
2.03

Please report the measured log10 IC50 for CNc1ncc(-c2ccc3ncc4c(c3c2)n(-c2ccc(F)nc2C)c(=O)n4C)cc1F [Example 7.12]
2.42

For the molecule Cc1nc(C(C)(C)O)ccc1-n1c(=O)n(C)c2cnc3ccc(-c4cncc(OC(C)C)c4)cc3c21 [Example 31.9] , report log10 IC50.
1.79

Quick one: give measured log10 IC50 for CCNc1cc(-c2ccc3ncc4c(c3c2)n(-c2ccc(N3CCC3)nc2C)c(=O)n4C)cnc1CO [Example 23.8]
1.56

Look up log10 IC50 of CCNc1cc(-c2ccc3ncc4c(c3c2)n(-c2ccc(N3CC(F)(F)C(F)(F)C3)nc2C)c(=O)n4C)cnc1CO [Example 35.2] and report it.
1.89

Supply log10 IC50 value. Item: CNc1ncc(-c2ccc3ncc4c(c3c2)n(-c2ccc(N3CC[C@H](O)C3)nc2C)c(=O)n4C)cn1 [Example 32.1]
2.01

Values were extracted from patent US20100311714A1.
